# experiment summary: log P (HPLC/MS data of the preparation examples)
# assay conditions: method [b]: LC-MS at pH 2.7, 0.1% formic acid in water / acetonitrile, linear gradient 10% to 95% acetonitrile
I'd appreciate it if you could supply log p values for the items below.

*Q* log p for Cn1nc(C(F)(F)F)nc1C(=NOCc1cccc(N)n1)c1ccccc1 [Example 181] ?
*A* 1.97^[b]

*Q* log p for CCCCC(=O)Nc1cccc(CON=C(c2ccccc2)c2nnc(C(F)(F)F)n2C)n1 [Example 207] ?
*A* 3.58^[b]

*Q* log p for Cn1ncnc1C(=NOCc1cccc(NC(=O)CCc2cccc(C(F)(F)F)c2)n1)c1ccccc1 [Example 239] ?
*A* 3.87^[b]

*Q* log p for CCCCCC(=O)NCc1cccc(CON=C(c2ccccc2)c2ncnn2C)n1 [Example 140] ?
*A* 2.62^[b]

*Q* log p for Cn1nc(C(=NOCc2cccc(NC(=O)CC(F)(F)F)n2)c2ccccc2)n(C)c1=O [Example 151] ?
*A* 2.66^[b]

*Q* log p for Cn1c(C(=NOCc2cccc(NC(=O)C(C)(C)C)n2)c2ccccc2)nnc1C(F)(F)F [Example 198] ?
*A* 3.58^[b]

*Q* log p for CCCCCC(=O)Nc1cccc(CON=C(c2ccccc2)c2nnc(C(F)(F)F)n2C)n1 [Example 196] ?
*A* 3.94^[b]

*Q* log p for COc1ccccc1CC(=O)Nc1cccc(CON=C(c2ccccc2)c2nccn2C)n1 [Example 268] ?
*A* 2.47^[b]

*Q* log p for CCCCOC(=O)NCc1cccc(CON=C(c2ccccc2)c2ncnn2C)n1 [Example 141] ?
*A* 2.84^[b]

*Q* log p for Cc1nc(C(=NOCc2cccc(N3C(=O)c4ccccc4C3=O)n2)c2ccccc2)cs1 (single isomer, unassigned) [Example 168] ?
*A* 3.27^[b]

*Q* log p for CCCC(C)C(=O)Nc1cccc(CON=C(c2ccccc2)c2nccn2C)n1 (centres unmarked) [Example 263] ?
*A* 2.54^[b]

*Q* log p for Cn1ncnc1C(=NOCc1cccc(NC(=O)CCCc2ccccc2)n1)c1ccccc1 [Example 249] ?
*A* 3.6^[b]

*Q* log p for CCC(C(=O)Nc1cccc(CON=C(c2ccccc2)c2cncn2C)n1)c1ccccc1 (centres unmarked) [Example 259] ?
*A* 2.3^[b]

*Q* log p for Cn1ccnc1C(=NOCc1cccc(NC(=O)Cc2ccccc2F)n1)c1ccccc1 [Example 269] ?
*A* 2.4^[b]

*Q* log p for CCCCCC(=O)Nc1cccc(CON=C(c2ccccc2)c2cnc(C)n2C)n1 [Example 212] ?
*A* 2.08^[b]

*Q* log p for Cn1ccnc1C(=NOCc1cccc(NC(=O)Cc2ccccc2F)n1)c1cccc(F)c1 [Example 276] ?
*A* 2.59^[b]

*Q* log p for CC(C)CC(=O)Nc1cccc(CON=C(c2ccccc2)c2nc(C(F)(F)F)nn2C)n1 [Example 177] ?
*A* 4.24^[b]
